# Test system: MS2 coat protein
# ASSAY_PROCEDURE: apparent KD of MS2 coat protein; designed switch direction (-1 OFF switch, 1 ON switch): -1; higher = weaker reporter binding
# CONDITION_DESCRIPTION: Eterna round: R95; input ligand: FMN 200 uM
In this section we review reported apparent KD of MS2 coat protein values for a set of sequences.
Give the value, in units of nM, as a plain number.

Some entries whose results are on file:
{"SEQ_STRING": "GCAGGCGUCUAGGCUCGUCUUAUUUUGAGAGGAUUGAUAACAUGAGGAUCACCCAUGUUUGUGGGAGAGUUGCAGUG [JR_SV3TOV2_Sub015] (puzzle: Sensor v3, turn-off variant 2)", "TEST_VALUE": 121}
{"SEQ_STRING": "CAUUACUGCAGGCUUUGGGACAUGAGGAUCACCCAUGUUCGUCUUAUUGAUCUAGGUACGCUGACGUACCUAGAUCU [JL-sv1-2.26 Brourd mod] (puzzle: Sensor v3, turn-off variant 1)", "TEST_VALUE": 17.6}

Q) Quote apparent KD of MS2 coat protein reported for GCCAGAGCAGGAUAUUCAAUAUGUCACAUGAGGAUCACCCAUGUCCAGCGAAAGCUGGAGGGAGAAGGGCUCUGGC [Fiskers Ex 5 - 18] (puzzle: Exclusion 5) please.
A) 23.7

====

# Tested on: MS2 coat protein
# ASSAY_PROCEDURE: apparent KD of MS2 coat protein; designed switch direction (-1 OFF switch, 1 ON switch): -1; higher = weaker reporter binding
# CONDITION_DESCRIPTION: input ligand: microRNA oligo, concentration not stated
VALUE_TYPE: apparent KD of MS2 coat protein (nM)
Give the value, in units of nM, as a plain number.

{"SEQ_STRING": "AACCUAGUCAUAGGAUAUACAGGCAAAGCCAAAGUAGAAGGAUGACACAUGAGGAUCACCCAUGUGGUCCUUGAACAAAAUAAC [Esatier] (Eterna round: R96, puzzle: Exclusion NG 1)", "QUANTITY_UNIT": "nM", "apparent KD of MS2 coat protein": 24.1}
{"SEQ_STRING": "CGGUCGUCCUCAGGAUAUACAUGAGGAUCACCCAUGUUUCUAGGAUCGGUCGUCCGGUCGGUGGUGUAGAAGGGAGGGUGGCUG [random 2, A 18%] (Eterna round: R96, puzzle: Exclusion NG 2)", "QUANTITY_UNIT": "nM", "apparent KD of MS2 coat protein": 37.1}
{"SEQ_STRING": "AGCUGUGGCCGAGGAUAUCCAACCUUAAAUACCGACGUAUAGUCGGACAUGAGGAUCACCCAUGUGGAGAAGGCGGUCUCAGCA [Eli eng2 - 039] (Eterna round: R96, puzzle: Exclusion NG 2)", "QUANTITY_UNIT": "nM", "apparent KD of MS2 coat protein": 28}
{"SEQ_STRING": "UCUCGCGGGCAAGGAUAUCCUACAUUGUUCUGGCCCGGGCAUGUUACAUGAGGAUCACCCAUGUGGGAGAAGGUGCGCCAGGGC [Design 35] (Eterna round: R96, puzzle: Exclusion NG 2)", "QUANTITY_UNIT": "nM", "apparent KD of MS2 coat protein": 18.9}

Below: the item to evaluate.
Q) Quote apparent KD of MS2 coat protein reported for AGGUAACAUGAGGAUCACCCAUGUCAGGAUAUCAGGAAGAUUAGAAUAGAGUAGAGGAUGAGAAGGGACUAUAU [Excluse me! 18- Jieux - Exclusion 1] (Eterna round: R96, puzzle: Exclusion 1) please.
A) 24.7
